# Kd per record follows
Biological target: T1, sIL-6R (soluble IL-6 receptor; SBH Sciences) (human, UniProt P08887 20-365)
T1 construct: also called human IL-6R
T1 sequence: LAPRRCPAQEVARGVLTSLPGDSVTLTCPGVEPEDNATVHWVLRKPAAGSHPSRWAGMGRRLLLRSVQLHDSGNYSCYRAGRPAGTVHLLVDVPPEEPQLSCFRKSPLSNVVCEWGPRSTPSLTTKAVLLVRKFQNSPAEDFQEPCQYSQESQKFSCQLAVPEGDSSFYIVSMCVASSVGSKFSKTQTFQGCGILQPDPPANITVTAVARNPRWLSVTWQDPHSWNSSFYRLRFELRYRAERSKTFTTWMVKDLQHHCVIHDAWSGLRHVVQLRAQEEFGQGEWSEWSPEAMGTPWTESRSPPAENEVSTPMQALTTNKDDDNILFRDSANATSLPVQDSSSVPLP
Assay: SPR (BIAcore 3000), antibody on chip, sIL-6R analyte, pH 7.4
Express the result in nM but write the number alone.

See these solved cases before continuing.
{"Binder": "Tocilizumab (antibody, human IgG1, kappa, V domains shown, also called 25; 25(control)) VH: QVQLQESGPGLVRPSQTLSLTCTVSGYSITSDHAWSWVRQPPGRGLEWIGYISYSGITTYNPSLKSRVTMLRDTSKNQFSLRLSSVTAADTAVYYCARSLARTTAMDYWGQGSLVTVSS VL: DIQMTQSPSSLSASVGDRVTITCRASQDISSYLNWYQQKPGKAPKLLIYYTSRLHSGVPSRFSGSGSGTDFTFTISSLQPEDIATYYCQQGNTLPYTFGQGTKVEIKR", "Units of measure": "nM", "Kd": 2.85}
{"Binder": "205# (antibody, human IgG1, kappa, V domains shown) VH: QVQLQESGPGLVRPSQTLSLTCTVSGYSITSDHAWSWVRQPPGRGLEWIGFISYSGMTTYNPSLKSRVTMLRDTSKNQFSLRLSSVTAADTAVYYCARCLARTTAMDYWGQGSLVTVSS VL: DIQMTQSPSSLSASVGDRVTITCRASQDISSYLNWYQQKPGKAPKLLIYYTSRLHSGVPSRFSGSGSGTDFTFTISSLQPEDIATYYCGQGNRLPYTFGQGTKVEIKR", "Units of measure": "nM", "Kd": 0.0122}

# lookup: Kd of 206# (antibody, human IgG1, kappa, V domains shown, also called Sample # 206) VH: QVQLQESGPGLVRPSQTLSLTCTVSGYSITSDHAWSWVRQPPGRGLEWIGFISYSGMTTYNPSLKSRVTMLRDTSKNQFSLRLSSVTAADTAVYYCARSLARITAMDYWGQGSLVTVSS VL: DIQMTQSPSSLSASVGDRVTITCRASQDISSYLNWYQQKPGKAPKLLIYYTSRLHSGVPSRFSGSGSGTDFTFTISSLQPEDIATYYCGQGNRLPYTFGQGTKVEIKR
0.00075

Entry 202# (antibody, human IgG1, kappa, V domains shown) VH: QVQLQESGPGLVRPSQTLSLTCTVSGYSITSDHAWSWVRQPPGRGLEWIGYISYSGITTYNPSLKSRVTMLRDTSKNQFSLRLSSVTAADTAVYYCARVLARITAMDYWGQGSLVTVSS VL: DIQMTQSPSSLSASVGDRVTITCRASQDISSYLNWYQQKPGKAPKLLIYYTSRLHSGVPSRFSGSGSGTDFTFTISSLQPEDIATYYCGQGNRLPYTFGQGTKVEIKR please
0.0288
